TARGET DESC: DDR1 kinase (Homo sapiens, UniProt Q08345)
Sequence (Q08345 19-876 isoform Q08345-2 limits assumed): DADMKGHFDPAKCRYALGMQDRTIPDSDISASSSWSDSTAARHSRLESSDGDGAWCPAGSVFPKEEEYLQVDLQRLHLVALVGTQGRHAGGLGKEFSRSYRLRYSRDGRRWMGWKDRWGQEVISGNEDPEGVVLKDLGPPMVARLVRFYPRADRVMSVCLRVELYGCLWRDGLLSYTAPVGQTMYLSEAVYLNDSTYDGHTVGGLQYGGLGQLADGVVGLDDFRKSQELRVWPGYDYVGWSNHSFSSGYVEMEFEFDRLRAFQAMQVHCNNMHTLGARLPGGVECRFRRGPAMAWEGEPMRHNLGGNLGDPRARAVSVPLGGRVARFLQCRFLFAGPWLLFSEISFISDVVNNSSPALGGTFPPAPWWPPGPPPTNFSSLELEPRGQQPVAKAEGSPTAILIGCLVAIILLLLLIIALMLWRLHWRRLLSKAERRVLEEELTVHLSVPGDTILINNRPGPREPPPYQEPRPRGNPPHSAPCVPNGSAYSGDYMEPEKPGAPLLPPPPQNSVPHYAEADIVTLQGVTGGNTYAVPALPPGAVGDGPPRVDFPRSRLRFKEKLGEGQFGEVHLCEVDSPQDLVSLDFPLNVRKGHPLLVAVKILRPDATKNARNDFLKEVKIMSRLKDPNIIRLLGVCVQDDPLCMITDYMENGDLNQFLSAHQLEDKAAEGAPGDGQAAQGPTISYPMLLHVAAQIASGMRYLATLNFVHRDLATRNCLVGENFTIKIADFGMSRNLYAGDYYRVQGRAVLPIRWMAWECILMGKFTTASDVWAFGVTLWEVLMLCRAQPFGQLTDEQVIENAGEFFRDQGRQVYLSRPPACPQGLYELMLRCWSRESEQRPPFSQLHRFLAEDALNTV
ASSAY OVERVIEW: Evaluation of DDR1 kinase inhibition (LANCE Ultra TR-FRET kinase assay)
Format: biochemical
Set-up: purchased Carna Biosciences 08-113
CONDITION NOTES: DDR1 protein 0.5 nM, LANCE Ultra ULight-poly GAT substrate, 2 hours at room temperature, duplicate; read-out: DDR-1 IC50
Catalogue of pIC50 readings, one per entry.
The read-out pIC50 is expressed as -log10 of concentration in moles per litre.

{"columns": ["MOLECULE", "pIC50"],
 "data": [
  ["Cc1ccc2c(n1)c(C1CN(C(=O)c3cc(N)ncc3F)C1)nn2CC(=O)N1CCOCC1(C)C [Compound E-186, p-toluenesulfonate]", 7.64]
]}

Specify pIC50 for C[C@H](N(C)C(=O)Cn1nc(C2CN(C(=O)c3cc(N)ncc3F)C2)c2ccccc21)C(F)(F)F [Compound E-261] and stop.
8.34

Quote pIC50 reported for Nc1cc(C(=O)N2CC(c3nn(CC(=O)N4CCC[C@@H]4C(F)(F)F)c4ccccc34)C2)c(F)cn1 [Compound E-60] please.
8.19

Indicate the recorded pIC50 value for this molecule: Nc1cc(C(=O)N2CC(c3nn(Cc4nnc(-c5ccc(F)cc5)o4)c4cccc(F)c34)C2)ccn1 [Compound E-20]
7.08

Check the records and state pIC50 for COc1cnccc1C(=O)N1CC(c2nn(CC(=O)N3CCC[C@H]3C(F)(F)F)c3cc(F)cc(F)c23)C1 [Compound E-133]
7.64

Read off the recorded pIC50 for N#CC1(NC(=O)Cn2nc(C3CN(C(=O)c4cc(N)ncc4F)C3)c3ccccc32)CC1 [Compound E-244]
7.39

Tell me its pIC50 given C[C@@H](N(C)C(=O)Cn1nc(C2CN(C(=O)c3cc(N)ncc3F)C2)c2ccccc21)C(F)(F)F [Compound E-262] as the entry.
8.03
